Values from the Biogen ADME set (Fang et al. 2023)

compounds and their reported intrinsic clearance, human liver microsomes
Numeric answer only, unit mL/min/kg assumed.

**Q:** For the compound shown here, CC1(c2nnc(-c3ccc4c(c3)OCCO4)o2)CCOCC1 , give the reported intrinsic clearance, human liver microsomes.
**A:** 13.3

**Q:** For the compound shown here, Cc1ncccc1CNc1ccc(CC#N)cc1 , give the reported intrinsic clearance, human liver microsomes.
**A:** 18.2

**Q:** For the compound shown here, Cc1cn2cc(C(=O)N(C)CCO)cc(N[C@@H]3CCOc4cccc(C)c43)c2n1 , give the reported intrinsic clearance, human liver microsomes.
**A:** 83.6

----------
So basically: intrinsic clearance, rat liver microsomes at 90 mL/min/kg or higher? That is Met. Lower than 90 mL/min/kg? That is Not met.

// known answers, use as guide
{"columns": ["Smiles Notation", "Assigned Label"],
 "data": [
  ["O=C(Nc1cccc(-c2cnco2)c1)C1(c2cccc(F)c2)CCOCC1", "Met"],
  ["CN(CC1CCC1)C(=O)C1CCN(c2ccc3nncn3n2)CC1", "Met"],
  ["CN(CC(=O)Nc1cccc(F)c1)C(=O)c1cccc(C#N)c1", "Met"]
]}

**Q:** Please check the record OCc1ccc(Cn2cc(-c3cc(F)ccc3-n3cccn3)nn2)cc1 and state if its intrinsic clearance, rat liver microsomes is at or above 90 mL/min/kg.
**A:** Met

**Q:** Please check the record CC(C)(C)c1ccc(C(=O)Nc2cn3cc(-n4ccnc4)ccc3n2)cc1 and state if its intrinsic clearance, rat liver microsomes is at or above 90 mL/min/kg.
**A:** Not met
